Where do the numbers come from? From paper PMC5540273.

Quick reference for %Inh among some compounds
Test system: NEK10;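 further: KINOMEscan kinase panel screen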
run_conditions: concentration: 1 μM, replicates: in singlicate; n = 1
// units = %; emit number, no label

Data request: Given the entry CCC(=O)c1c(-c2ccccc2)c2cc(Cl)ccc2c(=O)n1Cc1cc(S(C)(=O)=O)n(CC(F)F)n1 , report its measured %Inh.
Data returned: 5

Data request: Request: Nc1n[nH]c2nnc(-c3ccccc3)c(-c3ccccc3)c12
Data returned: 9

Data request: Request: O=C(Nc1ccc2c(c1)OCO2)NC1CCN(c2ccnc(NCc3ccc(F)cc3)n2)CC1
Data returned: 3

Data request: Request: Nc1nc(-c2ccccc2F)c(-c2ccnc3ccccc23)s1
Data returned: 3

Further cases:
Data request: Given the entry COC(=O)c1c(-c2ccccc2)c2cc(C)ccc2c(=O)n1Cc1ccccc1 , report its measured %Inh.
Data returned: 0

Data request: Request: COc1cccc(C2=C(N(C)c3ccccc3)C(=O)NC2=O)c1
Data returned: 22

Data request: Request: Cc1ccccc1COc1cc(-n2cnc3cc(Cl)ccc32)sc1C(N)=O
Data returned: 0

Data request: Request: Fc1cccc(CSc2nnc(-c3ccc4c(c3)CCO4)o2)c1
Data returned: 0

Data request: Request: CCC(=O)c1c(-c2ccccc2)c2cc(Cl)ccc2c(=O)n1Cc1cc(C(=O)NC2CC2)n(C)n1
Data returned: 0
